ASSAY EXPLANATION: Comparative boiling points
Type: physicochemical
Description: The unexpectedly low boiling points of compounds of the present invention render the compounds useful in processes involving temperature-sensitive substrates such as plastics. (For example, in vapor-phase cleaning, a substrate is rinsed in the condensing vapor of a boiling fluid, and in condensation heating, a substrate is heated by immersion in a boiling fluid.) In such applications, a lower-boiling fluid is preferred so as to avoid damage to the substrate. […]
READOUT NAME: Boiling Point (°C)

FC(F)OC(F)(F)C(F)(F)C(F)(F)C(F)(F)C(F)(F)C(F)(F)C(F)(F)C(F)(F)C(F)(F)F ... 155
FC(F)C(F)(F)C(F)(F)C(F)(F)C(F)(F)OC(F)(F)C(F)(F)C(F)(F)C(F)(F)C(F)(F)F [C5F11OC5F10H, C5F11—O—(CF2)5H] ... 150
FC(F)C(F)(F)C(F)(F)C(F)(F)C(F)(F)C(F)(F)C(F)(F)C(F)(F)C(F)(F)F [C8F17CF2H, reference compound] ... 136
FC(F)C(F)(F)OC(F)(F)C(F)(F)C(F)(F)C(F)(F)C(F)(F)C(F)(F)C(F)(F)C(F)(F)F ... 148
FC(F)C(F)(F)C(F)(F)C(F)(F)C(F)(F)C(F)(F)C(F)(F)C(F)(F)C(F)(F)C(F)(F)F [C9F19CF2H, reference compound] ... 154
FC(F)C(F)(F)C(F)(F)C(F)(F)OC(F)(F)C(F)(F)C(F)(F)C(F)(F)C(F)(F)C(F)(F)F ... 149
FC(F)OC(F)(F)C(F)(F)C(F)(F)C(F)(F)C(F)(F)C(F)(F)C(F)(F)C(F)(F)F ... 139
FC(F)C(F)(F)OC(F)(F)C(F)(F)C(F)(F)C(F)(F)C(F)(F)C(F)(F)C(F)(F)F ... 131

Entry source: patent US6863211B2
